System under test: human MT2 receptor (Homo sapiens)
Sequence (P49286 1-362): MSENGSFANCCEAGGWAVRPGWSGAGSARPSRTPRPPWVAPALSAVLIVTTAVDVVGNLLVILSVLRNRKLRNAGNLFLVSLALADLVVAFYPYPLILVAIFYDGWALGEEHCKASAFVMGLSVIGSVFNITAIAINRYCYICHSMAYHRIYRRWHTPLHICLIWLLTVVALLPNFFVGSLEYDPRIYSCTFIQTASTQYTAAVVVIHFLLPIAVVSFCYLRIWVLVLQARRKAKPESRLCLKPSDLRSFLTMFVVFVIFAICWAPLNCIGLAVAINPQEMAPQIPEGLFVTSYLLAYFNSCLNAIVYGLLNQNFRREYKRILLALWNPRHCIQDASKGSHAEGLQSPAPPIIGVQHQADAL
Procedure details: Activation of human MT2 receptor in receptor-expressing cells, intracellular Ca2+ by FLIPR
Details: HEK293 cells stably expressing human MT2 and Gq/i chimeric G protein; Ca2+ FLIPR
Measured metric: EC50 (nM)

Recorded EC50, per entry:
INSERT INTO results (smiles_representation, units, measured_value) VALUES
  ('CC(=O)NCCc1c(C)[nH]c2cc(F)c(OCCOc3ccn(C)n3)cc12', 'nM', 7),
  ('CC(=O)NCC(C)(C)c1c[nH]c2cc(F)c(OCCn3ccc(C)n3)cc12', 'nM', 15),
  ('COc1cccc(OCCOc2ccc3[nH]cc(CCNC(C)=O)c3c2)n1', 'nM', 2.6);

A: CNC(=O)NCCc1c[nH]c2ccc(OCCOc3ccnc(Cl)c3)cc12
B: CC(=O)NCCc1c[nH]c2cc(F)c(OCCOc3ccn(C)n3)cc12
Data request: Which one would you say has the larger EC50 value: A , or B ? Let me know the label of the one you choose.
Data returned: B

* * *

System under test: human MT1 receptor (Homo sapiens, UniProt P48039)
Sequence (P48039 whole entry): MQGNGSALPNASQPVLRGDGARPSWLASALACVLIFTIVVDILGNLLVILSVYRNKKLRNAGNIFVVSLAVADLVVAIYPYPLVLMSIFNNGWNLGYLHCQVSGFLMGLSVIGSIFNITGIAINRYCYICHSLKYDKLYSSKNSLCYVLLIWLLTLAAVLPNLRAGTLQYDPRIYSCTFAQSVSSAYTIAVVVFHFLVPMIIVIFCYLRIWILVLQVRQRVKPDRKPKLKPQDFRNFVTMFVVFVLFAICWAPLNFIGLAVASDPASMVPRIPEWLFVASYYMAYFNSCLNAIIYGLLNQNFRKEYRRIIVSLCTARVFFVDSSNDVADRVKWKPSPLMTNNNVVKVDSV
Procedure details: Activation of human MT1 receptor in receptor-expressing cells, intracellular Ca2+ by FLIPR
Details: HEK293EBNA1 cells stably expressing human MT1 and Gq/i chimeric G protein; Ca2+ FLIPR
pEC50: −log10 of the molar value.
Measured metric: pEC50

INSERT INTO measurements (compound, measured_metric, measured_value) VALUES
  ('CC(=O)NCC(C)c1c[nH]c2ccc(OCCOc3ccn(C)n3)cc12 (stereo not shown)', 'pEC50', 8.37),
  ('CCC(=O)NCCc1c[nH]c2ccc(OCCOc3ccn(C)n3)cc12', 'pEC50', 8.04),
  ('COc1ccc(OCCOc2ccc3[nH]cc(CCNC(C)=O)c3c2)cn1', 'pEC50', 7.89),
  ('CC(=O)NCCc1c(C)[nH]c2cc(F)c(OCCn3ccc(C)n3)cc12', 'pEC50', 8.14),
  ('CC(=O)NC[C@H](C)c1c[nH]c2cc(F)c(OCCn3ccc(C)n3)cc12', 'pEC50', 8.14),
  ('CC(=O)NCC(C)(C)c1c[nH]c2cc(F)c(OCCn3ccc(C)n3)cc12', 'pEC50', 8.22),
  ('CC(=O)NCCc1c(C)[nH]c2ccc(OCCOc3ccnc(C)c3)cc12', 'pEC50', 8.11),
  ('CCOC(=O)NCCOc1ccc2[nH]c(C)c(CCNC(C)=O)c2c1', 'pEC50', 8.11);

a: COc1cccc(OCCOc2ccc3[nH]cc(CCNC(C)=O)c3c2)n1
b: CNC(=O)NCCc1c[nH]c2ccc(OCCOc3cncc(Cl)c3)cc12
c: COc1ccc(OCCOc2cc3c(CCNC(C)=O)c[nH]c3cc2F)cn1
d: CC(=O)NCCc1c[nH]c2ccc(OCCc3csc(C)n3)cc12
Data request: In this exercise, place the 4 compounds in ascending sequence of their recorded pEC50. Reply with the labels, ordered as the question asks.
Data returned: b, c, d, a
(b: 7.82, c: 8.17, d: 8.39, a: 9.11)

I: CC(=O)NCCc1c[nH]c2ccc(OCCOc3ccn(C)n3)cc12
II: CC(=O)NCCc1c[nH]c2cc(F)c(OCCn3cc(Cl)cn3)cc12
Data request: For this pair, I and II , which shows a numerically higher pEC50? Your answer should be the label of the entry you select.
Data returned: I
(I: 8.15, II: 7.89)

Cited source for all entries: patent US9637451B2
